Origin of the recorded values: the supplement of paper PMC12764529

# experiment_notes: folding stability dG unfold from chymotrypsin proteolysis; higher = more stable
quantity_measured: folding stability dG unfold (kcal/mol)
One number for each entry, in kcal/mol.

Some solved entries appear below for comparison.
# sequence_entry, recorded_result
data = [
    ("SAGGKKKPKIRIKVEIDGKTVEVEVESPEELVEALKELGFEVEVVEVTEKTVVIKLKDGKLIRIEKESAGGS [r8_365_TrROS_Hall]", 2.06),
    ("SAGGSAGGSAGGVPPGAPELRLKVTVTVTTVELDEDTNELTTTTETVTVEVTVKVGETLSAGGSAGGSAGGS [r10_133_TrROS_Hall]", 1.17),
    ("SAGGMIEIEYNPDQGYFRITVWPMNPKNGKPKSKEIPIPFEGDPEEALDKVKDLIDDHPGYHVDIEPYSAGG [r13_284_TrROS]", 1.27),
    ("SAGGSAGGSAGLPGAEKARKPKPKVKVKVTLTVLPDGTLVLRVTFEDGTTKTITLKLHPDLLSAGGSAGGSA [r18_192_TrMRF]", 3.55),
    ("SAGGSASVLEEAIEEAKKLPPGSVVPLTVTVPTDGEPVVYEILITVHPGENTIEVEKKRKFSPERLSAGGSA [r15_724_JUSTAS]", 0.779),
    ("SAGMVEVLEEKTDPNSDLVTVTLYAPDVPDGFRVVVYPKDGVPIEISIKRGEEVVLKLPANVEKIEFIGSAG [r14_671_JUSTAS]", 2.41),
]

Moving on to the next sequence.
Prompt line: Item under review: SAGGSAGGSKIPPGEPVTLPIFFIIWDPENGRPYAMRMEITFDAPDGNITKMNEEVIPPGQPFSAGGSAGGS [r12_868_TrROS] . Reported folding stability dG unfold?
Response line: 1.49

---

So I've got a bunch of sequences here, and I need their folding stability dG unfold values.
# experiment_notes: folding stability dG unfold (combined trypsin and chymotrypsin); higher = more stable
One number for each entry, in kcal/mol.

Example entries begin here.
# sequence_entry, folding stability dG unfold, kcal/mol
records = [
    ("SAGGEVKIEVVEKDGELYIVVTVRAPSVEELKKALEELGLEVEVVKIEEVKGEDGETYVVVVVKIKPSAGGS [r16_699_TrROS_Hall]", 3.24),
    ("SAGGMVEIELVPMSEEELKKLREELPENEILIVVKEDGLVLIVRVEKSEEEAEKLAEELRKLLEELPSAGGS [r16_311_TrROS_Hall]", 1.69),
    ("SAGGSAGGMTSDKPVLPALIRVYYPNEGREETIPVLLGEDMPLEEALRIARELAHPDAKAEILNSAGGSAGG [r6_440_TrMRF]", 0.395),
    ("SYKIHIMRPNGEMEEIPIKHPDGWKINIHRGPNKPFYIMVERYDPDGGPKPKPVIPIDSPEQALDKLKDASA [r9_942_TrROS]", 0.0153),
    ("SAGGSAGGGFVTIEVEITEVVGKTKDEEGKPHPGDPNDPSGYVKLPPFPVKVPSSPEEYAALLSSAGGSAGG [r6_219_JUSTAS]", 0.301),
    ("SAGGSSESKTVTAPDGRVLEFTKSLDPTSSNSRYTLTVYAPESGEPLREAEFSSEEEAEKYIAEGLGSAGGS [r8_450_JUSTAS]", 0.331),
    ("SAGGSAGGSAGGMKVIPFESLEEAREYIKANPDENVLLEFPDALLELTKPDDIKKIEKKPSAGGSAGGSAGG [r7_532_JUSTAS]", 0.28),
    ("SAGGTIEEIRDQLKNMPPGYHVDLKIPNGRSHSFGSLEDIEDLPITNPNGRKIEITEVQPMPPPDEQSAGGS [r16_680_TrROS]", -0.703),
    ("SAGGSAGGSAGGHMVMITITIPIKKGAEIKFGDWDIKVPPGEQIQITIMIPVPPPDDDKSAGGSAGGSAGGS [r10_949_TrROS]", 2.79),
    ("SAGGSATPEEIAKKFFENHPELEPVEVKLEKFKIPGLKIWVVKVEITLKFKDNSKKKIPVVAVFPVSAGGSA [r15_266_TrMRF]", 2.72),
]

Field: folding stability dG unfold. Fill in for each record below.
1. SAGGSAGGSAGGMTIEINGKKYEIVEVKEEKGKLTLKIKVNGKLLEIEIDKDKNEIKIYPSAGGSAGGSAGG [r7_553_TrROS_Hall]
2. SAGGSAMEEEKPPKVKVRITVELEDGEKLEIEFETKEEAEEAAEALAKELEEKTGLKIKKIEVEEVSAGGSA [r15_140_TrROS_Hall]
3. SAGGSAGGGYAEFETTAVLPDGRVYRAKIVLSPDPDIVKIRLFSPEGEEEIELHPDDPLLLTPGSAGGSAGG [r6_926_TrMRF]
4. SAGGSAGGSAGGMVTTLEVTVSPDGVITVTTVTTDAAGTPVTTTTTTTVLGPGGPVLAVSAGGSAGGSAGGS [r10_484_JUSTAS]
5. SAGMKPGETIKNAKIRITYPNGEKKELKIDDVVKIVEIDEEKGVITIELKNGEKIEIKLPPGAKIEIEPSAG [r5_762_TrROS_Hall]

Response line:
3.91
2.81
1.62
2.03
3.2

---

# experiment_notes: folding stability dG unfold from trypsin proteolysis; higher = more stable
# binarize folding stability dG unfold: threshold 0.7 kcal/mol inclusive, high side yes, low side no

Solved entries:
# sequence_entry, group_label
measured = [
    ("SRDLLKELAEKFPNFEPKGVQEEPTDNGGVKLQVIARHPKNGRYYKIEITVPPDGKIEDIEIEPVPLDDLSA [r9_274_TrROS]", "yes"),
    ("SAGPWWMITIRLPGNKTITIMFPGVKVEVDPKNNTIRIRNPGLGHSIEFKFDPPGKIKDVDIEPIPPNASAG [r5_342_TrROS]", "yes"),
    ("SAGGSAGGSAGDLLKEALEEAKKAGIKTATITVEVDGKLYTLTVKLEPKPPPKEVKVEKKSAGGSAGGSAGG [r17_475_TrROS_Hall]", "no"),
]

Prompt line: Answer whether folding stability dG unfold of SAGGSADYVFVRIEVRDPKNKQPMSIMIPVPPDMTPDEAIEEAEMIANTFKEKGLEITVEVEPMPPSAGGSA [r15_268_TrROS] is greater than or equal to 0.7 kcal/mol.
Response line: yes

Prompt line: For SYKIHIMRPNGEMEEIPIKHPDGWKINIHRGPNKPFYIMVERYDPDGGPKPKPVIPIDSPEQALDKLKDASA [r9_942_TrROS] then?
Response line: no

Prompt line: Next sequence: SAGGSAGGSAGMPLTVLGTEEIGDSTTVTTKDPTSDELYRKTYTNGAVSSTEIVPASELGSAGGSAGGSAGG [r11_19_JUSTAS]
Response line: no

Prompt line: And what about the sequence SAGGKVVVVPFPGPVTPETVAALAAKFIEEGLYDVPLVVVSEVEGRRPDGRPGRRRFGFVYVAKAPKSAGGS [r16_44_TrMRF] ?
Response line: yes

Prompt line: Quick one: SAGGSAGGSAGGKVYFLPDNTVVYELPDGLYLAVTVNENGEPSRTLYRVLSPTEIKPFPLSAGGSAGGSAGG [r7_423_TrMRF]
Response line: yes

---

# experiment_notes: folding stability dG unfold (combined trypsin and chymotrypsin); higher = more stable
I'd appreciate it if you could supply folding stability dG unfold values for the items below.
Answers are plain numbers, in kcal/mol.

Past entries and their recorded results:
# sequence_entry, units_symbol, recorded_result
records = [
    ("SAGGSAKVKIEFFQMPPGGNPRDMQKKAQDKGDIFIIVNKPGWMIVITADDPEDANTIAKEILEEFSAGGSA [r15_546_TrROS]", "kcal/mol", 0.954),
    ("SAGGSAGGSGMKRTATVVERDPATGRVLLEITDGSKTTTRVLEGPPSGRGAASSPEIDSLSLLSAGGSAGGS [r12_421_JUSTAS]", "kcal/mol", -0.423),
    ("SAGGSAGGSSTTPVTITVPESILDEIKKKAEELGIKVEVEIKESPENKKYATVTIEIPENVELSAGGSAGGS [r12_653_JUSTAS]", "kcal/mol", 0.509),
    ("SMVIEIPDGTPLEEIIKKVKEAKEKGEPMEVVVTVPNDESVIQALKEAGFEVEVEKDEVKNVTLYKVKLPSA [r9_759_JUSTAS]", "kcal/mol", 2.59),
    ("SAGGSAGGSAGGVAEWIQEQGFKVKDIPVPRPPNGNPWVKVEVEHDGGKRTYEIPLDEISAGGSAGGSAGGS [r10_35_TrROS]", "kcal/mol", 0.0288),
]

Please give folding stability dG unfold, item by item, for the list that follows.
1. SAGGSAGGSAGGPLIVFERNADGTLTAVAVDEETGEVTVTRVTLKDGKLTVETETLPLDESAGGSAGGSAGG [r7_28_TrROS_Hall]
2. SAGMKKVKIETTEFREFEGGEREIVMKVYKPDGSEVATVVLPFPPDLSEEEMRERAEAEAKKLAEELGLSAG [r5_697_JUSTAS]
3. SAGGSAGGSAGGVDPTPDGILRVRVVIKDPNGDVFSEKEVEMTPEELEALKKAGYVILESAGGSAGGSAGGS [r10_749_JUSTAS]
4. SDRIEIEIWRHPNWWMIKIKVRDDGEPVGTQSFPVDDGMDIEEIADNLLNRNPNYKVEITEIEPMPPPPGSA [r9_364_TrROS]
5. SAEKIYYKVKVKVEIEKDGKPDIELEIEFIVSPEIPPEKVKEFIEKFLKSKGYKIKKIEIETEPIPSLESAG [r14_979_TrMRF]

Response line:
1. 1.65
2. 0.636
3. 1.82
4. 3.36
5. 5.03
